B1: STX11 (parent)
chain: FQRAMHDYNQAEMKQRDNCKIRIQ

# Variants of: B1
# assay notes: protein stability index of a GFP-peptide fusion (GPS, HEK-293T) (PSI 1-6); higher = more stable;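 note: lentivirally expressed fusions sorted by FACS into six bins by GFP to DsRed ratio, PSI derived from sequencing read proportions per bin multiplied by bin number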
# test parameters: c terminus: a fixed tail appended
For each of the variants below, state its protein stability index.
Simply state the number, no unit and no words.

Looking for the measured protein stability index of "M13S" , can you help?
3.03

Try "I21Y" next.
2.93

Try "H6T" next.
3.06

Try "I23K" next.
2.93

Try "Q2R" next.
3.02

Try "I21A" next.
3.01

Try "I23Y" next.
2.98

Try "K14N" next.
2.94
